Reported CC50 by item:
Test system: NCI-H630
Experiment: Cytotoxicity against human NCI-H630 cells after 72 hrs by MTT assay
Assay type: cell-based
Settings: nci-h630, 72 h
Form entry: value (µM) — number only.

| chemical structure | CC50, µM |
| --- | --- |
| O=C(NCc1ccc(C(F)(F)F)cc1)c1cc(S(=O)(=O)N2CCCCC2)cc(O)c1O | 31 |
| O=C(NCc1ccc(F)cc1)c1cc(S(=O)(=O)N2CCCCC2)cc(O)c1O | 13 |
| O=C(NCC1CCCCC1)c1cccc(O)c1O | 21 |
| O=C(NCc1ccco1)c1cc(S(=O)(=O)N2CCCCC2)cc(O)c1O | 33 |
| O=C(NCc1cccc2ccccc12)c1cccc(O)c1O | 21 |

// CC50 lookup, key: "O=C(NCCc1c[nH]c2ccccc12)c1cccc(O)c1O"
15

// CC50 lookup, key: "O=C(NCc1ccc(-c2cccs2)cc1)c1cccc(O)c1O"
15

// CC50 lookup, key: "CN(C)Cc1ccc(C(=O)NCc2ccco2)c(O)c1O"
7

* * *

Molecular target: Human immunodeficiency virus type 1 integrase (Human immunodeficiency virus 1)
Sequence (Q7ZJM1 whole entry): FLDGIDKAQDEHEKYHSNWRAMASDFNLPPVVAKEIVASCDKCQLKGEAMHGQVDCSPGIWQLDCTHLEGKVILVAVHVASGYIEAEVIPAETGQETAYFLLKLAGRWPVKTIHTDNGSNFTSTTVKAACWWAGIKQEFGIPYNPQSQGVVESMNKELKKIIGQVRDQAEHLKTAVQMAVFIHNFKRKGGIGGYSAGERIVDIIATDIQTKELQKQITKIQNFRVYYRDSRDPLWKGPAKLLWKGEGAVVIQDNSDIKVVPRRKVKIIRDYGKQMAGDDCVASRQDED
Assay: Inhibition of wild-type HIV1 integrase 3'-processing activity using [32P]-5'-end-labeled 5'-GTGTGGAAAATCTCTAGCAGT-3' as substrate after 1 hr
pIC50: −log10 of the molar value.
Reported pIC50 by item:

Look over these answered cases.
| chemical structure | subject of test | quantity name | result |
| --- | --- | --- | --- |
| CNC(=O)c1cc(F)ccc1CNC(=O)c1cccc(O)c1O | Human immunodeficiency virus type 1 integrase (Human immunodeficiency virus 1) | pIC50 | < 4.00 |
| O=C(Nc1ccc2[nH]ccc2c1)c1cccc(O)c1O | Human immunodeficiency virus type 1 integrase (Human immunodeficiency virus 1) | pIC50 | < 4.00 |
| O=C(O)c1cc(OCc2ccc(F)cc2)ccc1O | Human immunodeficiency virus type 1 integrase (Human immunodeficiency virus 1) | pIC50 | < 4.00 |
| CN(C)Cc1ccc(C(=O)NCc2ccco2)c(O)c1O | Human immunodeficiency virus type 1 integrase (Human immunodeficiency virus 1) | pIC50 | < 4.00 |

// pIC50 lookup, key: "O=C(NCc1cccs1)c1cccc(O)c1O"
4.08

// pIC50 lookup, key: "O=C(NCc1ccc(C(F)(F)F)cc1)c1cc(S(=O)(=O)N2CCCCC2)cc(O)c1O"
4.05

* * *

Assay: Cytotoxicity against human NCI-H630 cells after 72 hrs by MTT assay
Format: cell-based
Settings: NCI-H630 cells
Reported CC50 at 72 h by item:

Look over these answered cases.
| chemical structure | quantity name | result |
| --- | --- | --- |
| O=C(NCc1ccco1)c1cccc(O)c1O | CC50 at 72 h | > 40 µM |
| O=C(NCc1cccs1)c1cc(S(=O)(=O)N2CCCCC2)cc(O)c1O | CC50 at 72 h | > 40 µM |
| CNS(=O)(=O)c1cc(O)c(O)c(C(=O)NCc2ccc(F)cc2)c1 | CC50 at 72 h | > 40 µM |

// CC50 at 72 h lookup, key: "O=C(NC1CCNCC1)c1cccc(O)c1O"
> 10 µM

// CC50 at 72 h lookup, key: "O=C(NCc1ccc2[nH]ccc2c1)c1cccc(O)c1O"
> 40 µM

// CC50 at 72 h lookup, key: "O=C(O)c1ccc(OCc2ccc(F)cc2)cc1O"
> 40 µM

// CC50 at 72 h lookup, key: "O=C(O)c1cccc(OCc2ccc3ccccc3c2)c1O"
> 40 µM

// CC50 at 72 h lookup, key: "O=C(NC1CCCCC1)c1cccc(O)c1O"
> 40 µM

// CC50 at 72 h lookup, key: "O=C(NCc1ccc(F)cc1)c1cccc(OCc2ccccc2)c1O"
> 40 µM

// CC50 at 72 h lookup, key: "CN(C)Cc1ccc(C(=O)NCc2ccc(F)cc2)c(O)c1O"
> 10 µM

// CC50 at 72 h lookup, key: "CC(C)(C)NS(=O)(=O)c1cc(O)c(O)c(C(=O)NCc2ccc(F)cc2)c1"
> 10 µM

// CC50 at 72 h lookup, key: "O=C(O)c1cccc(OCc2ccc(F)cc2)c1O"
> 40 µM
